Recorded z-score by entry
Assay: RPMI8226 myeloma cell viability, profiling panel, resazurin fluorescence, basal, 24 h, PK04 Diversity Set (AID 1180);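 also: RPMI8826 multiple myeloma cell line at 5000 cells per well; test concentration not given here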
Settings: higher = more signal
The answer should be a number; do not append a unit.

Examples with their reported z-score follow.
{"compound": "COc1ccc(CCNC(=O)[C@@H]2c3ccccc3C(=O)N(CC34CC5CC(CC(C5)C3)C4)[C@H]2c2ccc(CO)cc2)cc1", "z-score": 0.618}
{"compound": "O=C1OCCC/C=C\\[C@H]2OC34C=CCN(Cc5ccccc5)C(=O)[C@H]3N(CCCCCO)C(=O)[C@@H]4C12 (stereo partly specified)", "z-score": 1.16}
{"compound": "C=CCC(OC(C)=O)[C@@H]1[C@@H](N(Cc2cccc3ccccc23)C(=O)c2cccc3ccccc23)c2cc(OCCCO)ccc2N1C(=O)Cc1ccc2ccccc2c1 (stereo partly specified)", "z-score": -0.0924}
{"compound": "C=CCN1C(=O)[C@]2(O[C@H](CCn3cc([C@H](O)c4ccccc4)nn3)[C@@H]([Si](C)(C)c3ccc(OC)cc3)[C@@H]2C)c2cc(N3C(=O)c4cccc5cccc3c45)ccc21", "z-score": -3.61}
{"compound": "COCCOC(=O)N1C(=O)[C@@]2(c3cc(C#CC4(O)CCCCCC4)ccc31)[C@H](c1ccccc1OCCO)N1[C@H](c3ccccc3)[C@H](c3ccccc3)OC(=O)[C@H]1[C@@H]2C(=O)N1CCCCCCC1", "z-score": -0.444}

Alright, here's another compound for you.
-- ask Entry CC(C)c1ccc(NN2C(C(O)C(C)C)C=CC3C(=O)N(c4ccccc4)C(=O)C32)cc1 (stereo unspecified) : reported z-score = ?
-- reply 0.0438
